Reported values of fold change in fluorescence relative to zaprinast alone for individual entries
tested on: GCaMP5-expressing T. gondii; construct: whole extracellular parasites expressing GCaMP5 Ca2+ sensor; parameters: species or system GCaMP5-expressing Toxoplasma gondii, extracellular; GCaMP5 fluorescence (cytosolic Ca2+) after 100 uM zaprinast in compound-pretreated extracellular parasites, background-subtracted, relative to zaprinast alone; details: 100 uM zaprinast stimulation; 10 min pretreatment; mean of two replicates; 0.23 h
recorded.endpoint: fold change in fluorescence relative to zaprinast alone

compound: c1ccc(-c2cnc3nccnn23)cc1 [AH20685XX]
value: 1.296
//
compound: CCSc1ccc(-c2nc3n(c2-c2ccncc2)CCC3)cc1
value: 1.019
//
compound: O=C(NCC1CC1)c1ccc(-c2cc(C(=O)NC3CC3)ccc2F)cc1 [GW810445X]
value: 1.232
//
compound: CCCc1ccc(S(=O)(=O)NC2CCN(c3ccnc(Nc4ccc(F)cc4)n3)C2)cc1 (stereo not drawn) [GSK1379715A]
value: 0.5743
//
compound: C[C@@H](Oc1cc(-n2cnc3cc(-c4ccnc(NCCS(C)(=O)=O)c4)ccc32)sc1C(N)=O)c1ccccc1Cl [GSK907232A]
value: 1.132
//
compound: O=C(Nc1n[nH]c2cc(-c3ccsc3)ccc12)C1CC1
value: 1.052
//
compound: COc1ccc(Nc2nccc(N3CCC(NC(=O)Nc4cccc(C(C)=O)c4)C3)n2)cc1 (stereo not drawn) [GSK1379731A]
value: 0.6491
//
compound: COc1ccc(Nc2nccc(NCCNC(=O)Nc3cc(C)ccc3C)n2)cc1 [GSK1379899A]
value: 1.713
//
compound: CNC(=O)c1cncc(/C=C/c2ccccc2C)c1 [GW445015X]
value: 1.264

====

test system: GCaMP5-expressing T. gondii; construct: whole extracellular parasites expressing GCaMP5 Ca2+ sensor; design: species or system GCaMP5-expressing Toxoplasma gondii, extracellular; GCaMP5 fluorescence (cytosolic Ca2+) after 100 uM zaprinast in compound-pretreated extracellular parasites, background-subtracted, relative to zaprinast alone; conditions: 100 uM zaprinast stimulation; 10 min pretreatment; mean of two replicates; 0.23 h
Reported values of fold change in fluorescence relative to zaprinast alone for individual entries
recorded.endpoint: fold change in fluorescence relative to zaprinast alone

compound: COc1ccc(Nc2nccc(N3CCC(NC(=O)Nc4cc(C)ccc4C)C3)n2)cc1 (centres unmarked) [GSK1379741A]
value: 1.033
//
compound: COc1ccc(C[C@@H](CN)NC(=O)c2cc(Br)c(-c3ccnc4[nH]ccc34)s2)cc1 [GSK1389063A]
value: 0.8633
//
compound: CN(c1ccc2c(c1)nc(NCc1ccccc1)n2C)c1ccnc(Nc2ccc(CS(C)(=O)=O)cc2)n1 [GW811603A]
value: 1.239
//
compound: CS(=O)(=O)CCNCc1ccc(-c2ccc3ncnc(Nc4ccc(OCc5ccccc5)c(Br)c4)c3c2)o1 [GW580496A]
value: 1.191
//
compound: NC(CNC(=O)c1cc(Br)c(-c2ccnc3[nH]ccc23)s1)c1ccccc1 (centres unmarked) [GSK1322949A]
value: 0.4024
//
compound: O=c1[nH]ccc2nc(N[C@@H]3CCCNC3)nc(Nc3ccc(S(=O)(=O)N4CCOCC4)cc3)c12 [GSK2177277A]
value: 1.049
//
compound: COc1cccc(C2=C(Nc3cccc(Cl)c3)C(=O)NC2=O)c1
value: 1.087
//
compound: Cn1c(-c2nonc2N)nc2cnccc21
value: 1.181

====

test system: GCaMP5-expressing T. gondii; construct: whole extracellular parasites expressing GCaMP5 Ca2+ sensor; design: species or system GCaMP5-expressing Toxoplasma gondii, extracellular; GCaMP5 fluorescence (cytosolic Ca2+) after 100 uM zaprinast in compound-pretreated extracellular parasites, background-subtracted, relative to zaprinast alone; conditions: 100 uM zaprinast stimulation; 10 min pretreatment; mean of two replicates; 0.23 h
Reported values of fold change in fluorescence relative to zaprinast alone for individual entries
recorded.endpoint: fold change in fluorescence relative to zaprinast alone

compound: CCc1nccc2c1nc(-c1nonc1N)n2CC
value: 1.115

compound: COC(=O)c1cncc(/C=C/c2c(C)cc(O)cc2C)c1 [GW406731X]
value: 0.8759

compound: NCC(C(=O)Nc1cc(Br)c(-c2ccnc3[nH]ccc23)s1)c1ccccc1 (stereo not drawn) [GSK1269851A]
value: 0.2436

compound: COc1cccc(-c2ccc3c(NC(=O)C4CC4)n[nH]c3n2)c1
value: 1.151

compound: COc1cccc(/C=N/Nc2ncnc3c2cnn3-c2cccc(OC)c2)c1 [GW829874X]
value: 1.214

compound: Cc1cccc(-c2cc(-c3cn[nH]c3-c3ccccn3)ccn2)c1 [GW679395X]
value: 0.9312

compound: COc1cc(C=NNc2ncnc3c2cnn3Cc2ccccc2)ccc1O [GW643971X]
value: 1.09

compound: CS(=O)(=O)CCNCc1ccc(-c2ccc3ncnc(Nc4ccc(OCc5ccccc5)c(C(F)(F)F)c4)c3c2)o1 [GW574782A]
value: 0.7605

compound: NC[C@H](CC1CCCCC1)NC(=O)c1ccc(-c2ccnc3[nH]ccc23)s1 [GSK1581428A]
value: 1.197

====

Reported values of fold change in fluorescence relative to zaprinast alone for individual entries
tested on: GCaMP5-expressing T. gondii; construct: whole extracellular parasites expressing GCaMP5 Ca2+ sensor; set-up: species or system GCaMP5-expressing Toxoplasma gondii, extracellular; GCaMP5 fluorescence (cytosolic Ca2+) after 100 uM zaprinast in compound-pretreated extracellular parasites, background-subtracted, relative to zaprinast alone; conditions: 100 uM zaprinast stimulation; 10 min pretreatment; mean of two replicates; 0.23 h
recorded.endpoint: fold change in fluorescence relative to zaprinast alone

molecule: CCn1cnc2c(N)ncnc21 [GW345098X]
value: 1.056
--
molecule: c1ccc(Cc2nc3ccc(Nc4ncnc5ccccc45)cc3[nH]2)cc1 [GR269666A]
value: 1.257
--
molecule: COc1cccc(-c2c[nH]c3c(N/N=C/c4ccncc4)ncnc23)c1 [GW814408X]
value: 0.6391
--
molecule: COc1cc(C=NNc2ncnc3c2cnn3-c2ccccc2)ccc1O [GW513184X]
value: 0.5493
--
molecule: CN1C(=O)C(Nc2ccc(Cl)c(C(=O)O)c2)=C(c2ccc(Cl)cc2)C1=O
value: 0.783
--
molecule: CCN1CCC(C(=O)Nc2n[nH]c3nnc(-c4cccc(F)c4F)cc23)CC1
value: 1.08
--
molecule: c1ccc(Oc2ccc(Nc3ccnc4ccc(-c5ccccn5)cc34)cc2)cc1 [GW407034X]
value: 0.6551
--
molecule: CS(=O)(=O)Cc1ccc(Nc2nccc(-c3c(-c4cccc(NC(=O)c5c(F)cccc5F)c4)nn4ccccc34)n2)cc1 [GSK323543A]
value: 1.565
--
molecule: COc1ccccc1Nc1ncc(-c2ccccc2)o1 [GW577921A]
value: 0.9668
--
molecule: COc1cccc(NC(=O)NC2CCN(c3ccnc(Nc4cc(OC)c(OC)c(OC)c4)n3)C2)c1 (stereo not shown) [GSK1379763A]
value: 1.269
--
molecule: Nc1nc(N)c2[nH]c(-c3ccccc3)nc2n1
value: 1.022
--
molecule: O=S(=O)(c1cccc(F)c1)c1ccc(Nc2ncnc3cc(Br)sc23)cc1Cl [GSK306886A]
value: 1.114
--
molecule: Fc1cc(Cl)ccc1Nc1ccnc2cc(-c3ccc(CN4CCCCC4)o3)ccc12 [GW560116X]
value: 0.6823
--
molecule: Oc1cc(Nc2ccnc3cc(I)ccc23)ccc1F [GW552771X]
value: 0.9648
--
molecule: Cc1ccc(NC(=O)c2ccnc(N3CCCC3)c2)cc1-c1ccc(C(=O)NCC2CC2)cc1 [GW769076X]
value: 1.128
--
molecule: NS(=O)(=O)c1cccc(-c2ccc3c(NC(=O)C4CC4)n[nH]c3c2)c1
value: 1.374
--
molecule: O=C(Nc1n[nH]c2nc(-c3cccc(O)c3)ccc12)C1CC1
value: 0.905
--
molecule: Cn1cncc1-c1cc2c(Nc3ccc(OCc4ccccc4)cc3)ncnc2cn1 [GW281179X]
value: 1.036
--
molecule: COc1cccc(NC(=O)Nc2ccc(C)c(-c3ccc(C(=O)Nc4ccncc4)cc3)c2)c1 [GSK1398474A]
value: 1.231

====

Tested on: GCaMP5-expressing T. gondii
Construct: whole extracellular parasites expressing GCaMP5 Ca2+ sensor
Parameters: species or system GCaMP5-expressing Toxoplasma gondii, extracellular; GCaMP5 fluorescence (cytosolic Ca2+) after 100 uM zaprinast in compound-pretreated extracellular parasites, background-subtracted, relative to zaprinast alone
Conditions: 100 uM zaprinast stimulation; 10 min pretreatment; mean of two replicates; 0.23 h
Method: GCaMP5-expressing parasites were suspended in Ringer's solution at 4 × 10^7 parasites/ml, and 50 μl of parasites were applied to each well of a 96-well plate (Costar, catalog no. 3631). […] Parasites were then treated with 100 μM zaprinast or 0.1% DMSO as a vehicle control and incubated at 37 °C with 5% CO2 for an additional 4 min before measuring fluorescence with excitation and emission wavelengths of 485 and 525 nm, respectively, on a SpectraMax M3 (Molecular Devices). […]
Reported values of fold change in fluorescence relative to zaprinast alone for individual entries
recorded.endpoint: fold change in fluorescence relative to zaprinast alone

compound: CCn1cc(-c2ccnc3[nH]ccc23)c(-c2cccc(NC(=O)Nc3ccc(OCc4ccccc4)cc3)c2)n1 [GSK718429A]
value: 1.268

compound: O=C(O[C@H]1CN[C@H](C#Cc2cc3ncnc(Nc4ccc(OCc5cccc(F)c5)c(Cl)c4)c3s2)C1)N1CCOCC1 [GW869810X]
value: 1.08

compound: COc1ccc(-c2ccc3c(NC(=O)C4CC4)n[nH]c3n2)cc1 [SB-711237]
value: 1.177

compound: NC(=O)c1cc(-c2ccc(F)cc2)cc(-c2ccncc2)c1N [GSK620503A]
value: 1.057

compound: CNc1nc(-c2ccc3c(N)n[nH]c3c2)cc(N2C[C@@H](C(=O)NC3CCCCC3)OC[C@H]2C)n1 [GSK2375584A]
value: 1.379

compound: NC(=O)c1cc(-c2ccccc2)cc2c(C3CCNCC3)c[nH]c12 [GSK301362A]
value: 1.06

compound: NC(=O)c1ccc2c(-c3ccnc(NCCCO)n3)c(-c3ccc(F)cc3)nn2c1 [GW581744X]
value: 0.8342

compound: FC(F)(F)c1ccc(-c2cc(-c3cn[nH]c3-c3ccccn3)ccn2)cc1 [GW599550X]
value: 1.459

compound: COc1ccc(COc2ccc(Cc3cnc(N)nc3N)cc2OC)cc1 [GW632580X]
value: 1.155

compound: Fc1ccc(-c2ncn(C3CCNCC3)c2-c2ccnc(Oc3ccc4c(c3)OCO4)n2)cc1 [SB-250715]
value: 1.074

compound: CC(C)Oc1ccc2c(-c3ccnc(Nc4ccc(N5CCN(C)CC5)cc4)n3)cnn2n1 [GW696155X]
value: 0.6015

compound: FC(F)(F)c1cc(Nc2nccc(-c3c(-c4ccc(Cl)cc4)nn4ncccc34)n2)ccc1Cl [GW829351X]
value: 0.8408

compound: C[C@@H](Oc1cc(-n2cnc3ccc(OCC4CCN(C)CC4)cc32)sc1C(N)=O)c1ccccc1Cl [GSK571989A]
value: 0.9822

compound: CC1=C(C(=O)Nc2cc3cn[nH]c3cc2F)C(c2ccc(C(F)(F)F)cc2)CC(=O)N1 (centres unmarked) [GSK429286A]
value: 1.046

compound: NCC(NC(=O)c1cc(-c2ccnc3[nH]ccc23)cs1)c1ccccc1 (centres unmarked) [GSK1229959A]
value: 0.7412

compound: Cn1ncc2c(N)ncnc21 [SKF-18267]
value: 0.9633

compound: COc1cc(C)c(NC(=O)CN(C)C)cc1Nc1nc(Nc2cccc(F)c2C(N)=O)c2cc[nH]c2n1 [GSK2213727A]
value: 1.59
